- Type: in vivo, human
- Condition set: human, plasma, iv, 0.5 mg, AUC0‐t, arithmetic mean ± SD, moderate hepatic impairment, single 0.5 mg IV; dose-normalized to 1 mg
Readout label: AUC

Task: Which AUC reading was recorded for the molecule "COc1ccsc1CNCC[C@@]1(c2ccccn2)CCOC2(CCCC2)C1" ?
Output: 29.9 ng·h/mL

---

- Type: in vivo, human
- Condition set: human, plasma, iv, 0.5 mg, CL, arithmetic mean ± SD, severe hepatic impairment, single 0.5 mg IV
Readout label: clearance
Reply with a number, then the unit it belongs to.

Task: What value of clearance has been recorded for this entry: COc1ccsc1CNCC[C@@]1(c2ccccn2)CCOC2(CCCC2)C1 [Oliceridine]
Output: 738 mL/min

---

- Assay type: in vivo, human
- Condition set: human, plasma, iv, 0.5 mg, t½, arithmetic mean ± SD, severe hepatic impairment, single 0.5 mg IV
Readout label: half-life (h)
Field: numeric (h). Do not append units.

Task: Tell me the measured half-life of "COc1ccsc1CNCC[C@@]1(c2ccccn2)CCOC2(CCCC2)C1" , please.
Output: 6.3

---

- Assay type: in vivo, human
- Condition set: human, plasma, iv, 0.5 mg, t½, arithmetic mean (SD), ESRD subjects, single 0.5 mg IV
Readout label: half-life (h)
Express the result in h but write the number alone.

Task: Reported half-life for COc1ccsc1CNCC[C@@]1(c2ccccn2)CCOC2(CCCC2)C1 [Oliceridine] : what is it?
Output: 3.11

---

- Format: in vivo, human
- Condition set: human, plasma, iv, 0.5 mg, AUC0‐t, geometric mean (%CVb), ESRD subjects, single 0.5 mg IV; dose-normalized to 1 mg
Readout label: AUC

Task: Need AUC, item COc1ccsc1CNCC[C@@]1(c2ccccn2)CCOC2(CCCC2)C1 [Oliceridine]
Output: 19.1 ng·h/mL

---

- Assay type: in vivo, human
- Condition set: human, plasma, iv, 0.5 mg, CL, geometric mean (%CVb), ESRD subjects, single 0.5 mg IV
Readout label: clearance
Hey, just the number and the unit after it is fine.

Task: // clearance lookup, key: "COc1ccsc1CNCC[C@@]1(c2ccccn2)CCOC2(CCCC2)C1"
Output: 820 mL/min

---

- Type: in vivo, human
- Condition set: human, plasma, iv, 0.5 mg, t½, arithmetic mean ± SD, moderate hepatic impairment, single 0.5 mg IV
Readout label: half-life (h)
Kindly answer with a numeric value in h, unit omitted.

Task: So what's the measured half-life for this one? "COc1ccsc1CNCC[C@@]1(c2ccccn2)CCOC2(CCCC2)C1"
Output: 4.7

---

- Assay type: in vivo, human
- Condition set: human, plasma, iv, 0.5 mg, Vz, geometric mean (%CVb), severe hepatic impairment, single 0.5 mg IV
Readout label: Vd (L)
The response must be a number in L with no trailing unit.

Task: What value of measured Vd is listed for COc1ccsc1CNCC[C@@]1(c2ccccn2)CCOC2(CCCC2)C1 [Oliceridine] ?
Output: 348

---

- Type: in vivo, human
- Condition set: human, plasma, iv, 0.5 mg, Cmax, arithmetic mean ± SD, moderate hepatic impairment, single 0.5 mg IV; dose-normalized to 1 mg
Readout label: Cmax
A bare number is not enough; add the unit after it.

Task: What does the record list as Cmax for "COc1ccsc1CNCC[C@@]1(c2ccccn2)CCOC2(CCCC2)C1" ?
Output: 46.6 ng/mL
